Target: human IL-17RA on cells (human PBMC; human foreskin fibroblasts) (human, UniProt Q96F46 33-866)
Assay: cell-based or functional assay
quantity: % Inhib. of IL-5 production (TSLP treated human PBMC + IL-2 + IL-25), Expt. 3 (%)

{"binder": "2.133.1 (antibody, V domains shown) VH: QVQLQESGPGLVKPSETLSLTCTVSGGSISNYYWNWIRQSPGKGLEWIGDIYYSGSTNYNPSLKSRVTISVDTSKNQFSLKLSSVTTADTAVYYCARDGELANYYGSGSYQFYYYYGMDVWGQGTTVTVSS VL: DILMTQSPSSLSASVGDRVTITCRASQGIRNDLGWYQQKPGKAPKRLIYAASSLQSGVPSRFSGSGSGTEFTLTISSLQPEDFATYYCLQHNSNPFTFGPGTKVDIK", "readout_units": "%", "numeric_result": 28}
